Origin of values: patent US20100310640A1

# target or test system: T1, HLA-DR DRB1*0401 (human)
# T1 chain 1: not shown
# T1 chain 2: not shown
# assay method text: radioligand inhibition, purified HLA-DR
# study conditions: remark: other sources report otherwise
experimental endpoint: log10(IC50) (log10 of the value in nM)
A difference of one corresponds to tenfold IC50; all values are log10 with IC50 in nM.

// known answers, use as guide
binder	log10(IC50)
MRKIVATWMLEVCEE [Cyclin D1.56]	3.90
QYSWRINGIPQQHTQ [CEA.624 peptide 9019.0138]	1.63
EPKKLRPPPARTPCQ [Peptide 9019.0188]	2.91
EALLESSLRQAQQNM [Cyclin D1.252]	2.78
GCQVVQGNLELTYLP [Her/neu.52]	3.44

I need log10(IC50) for every entry listed below, if you could help.
1. ICELHCPALVTYNTD [Her2/neu.263]
2. SDSVILNVLYGPDAP [CEA.123 peptide 9019.0119 (position 226)]
3. SSYLSGANLNLSCHS [CEA.603 peptide 9012.0137]
4. HNQVRQVPLQRLRIV [Her/neu.88]
5. FRELVSEFSRMARDP [Peptide 9019.0096]
6. SPGLSAGATVGIMIG [CEA.680 peptide 9019.0144]

Found:
1: 2.88; 2: 2.41; 3: 2.76; 4: 2.92; 5: 1.34; 6: 3.62

List reported log10(IC50) for each of these binders:
1. GYVIGTQQATPGPAY [CEA.81 peptide 9019.0110]
2. LAALCRWGLLLALLP [Her/neu.3]
3. SITVSASGTSPGLSA [CEA.671 peptide 9919.0143]
4. NDRVLRAMLKAEETC [Cyclin D1.24 peptide 9019.0147]
5. DNSIRPEELLQMELL [Cyclin D1.129]

Found:
1. 1.49
2. 3.73
3. 1.88
4. 3.29
5. 3.67

Lookup: Look up and state reported log10(IC50) for GPAYSGREIIYPNAS [CEA.92 peptide 9019.0111]
Found: 4.11
